Conditions: in water, 318.15 K
Quantity measured: solubility (mole fraction)
Output: the number by itself.

query: // query solubility (mole fraction) value for entry Cc1nnc(C(C)C)n1[C@@H]1C[C@H]2CC[C@@H](C1)N2CC[C@H](NC(=O)C1CCC(F)(F)CC1)c1ccccc1
result: 9.89e-05

---

Settings: in DMF, 313.15 K
Quantity measured: solubility (mole fraction)
No unit in the answer, please; the number alone is enough.

query: For the molecule Cc1nnc(C(C)C)n1[C@@H]1C[C@H]2CC[C@@H](C1)N2CC[C@H](NC(=O)C1CCC(F)(F)CC1)c1ccccc1 , what solubility (mole fraction) is on record?
result: 0.000535

---

Conditions: in water, 313.15 K
Quantity measured: solubility (mole fraction)
# answer = number (no unit)

query: Reported solubility (mole fraction), compound Cc1nnc(C(C)C)n1[C@@H]1C[C@H]2CC[C@@H](C1)N2CC[C@H](NC(=O)C1CCC(F)(F)CC1)c1ccccc1 : ____
result: 7.13e-05

---

Settings: in n-propanol, 318.15 K
Quantity measured: solubility (mole fraction)
Response field accepts a number only; no unit should be typed.

query: Bench note: what solubility (mole fraction) did Cc1nnc(C(C)C)n1[C@@H]1C[C@H]2CC[C@@H](C1)N2CC[C@H](NC(=O)C1CCC(F)(F)CC1)c1ccccc1 show?
result: 0.00296

---

Conditions: in DMF, 283.15 K
Quantity measured: solubility (mole fraction)
Give the figure by itself; no unit, no explanation.

query: Please give the measured solubility (mole fraction) for this molecule: Cc1nnc(C(C)C)n1[C@@H]1C[C@H]2CC[C@@H](C1)N2CC[C@H](NC(=O)C1CCC(F)(F)CC1)c1ccccc1
result: 5.31e-05

---

Details: in water, 298.15 K
Quantity measured: solubility (mole fraction)
Give the value as a plain number.

query: Which solubility (mole fraction) is reported for this molecule? Cc1nnc(C(C)C)n1[C@@H]1C[C@H]2CC[C@@H](C1)N2CC[C@H](NC(=O)C1CCC(F)(F)CC1)c1ccccc1
result: 2.47e-05

---

Conditions: in DMSO, 318.15 K
Quantity measured: solubility (mole fraction)
Quick one: just the number, no unit, thanks!

query: Look up solubility (mole fraction) for this molecule: Cc1nnc(C(C)C)n1[C@@H]1C[C@H]2CC[C@@H](C1)N2CC[C@H](NC(=O)C1CCC(F)(F)CC1)c1ccccc1
result: 0.00038

---

Conditions: in water, 293.15 K
Quantity measured: solubility (mole fraction)

query: Using the record for Cc1nnc(C(C)C)n1[C@@H]1C[C@H]2CC[C@@H](C1)N2CC[C@H](NC(=O)C1CCC(F)(F)CC1)c1ccccc1 , report its solubility (mole fraction).
result: 1.7e-05

---

Conditions: in water, 288.15 K
Quantity measured: solubility (mole fraction)
Respond numerically, and do not add a unit to the figure.

query: Returns the measured solubility (mole fraction) for the input molecule. Input: Cc1nnc(C(C)C)n1[C@@H]1C[C@H]2CC[C@@H](C1)N2CC[C@H](NC(=O)C1CCC(F)(F)CC1)c1ccccc1
result: 1.15e-05

---

Conditions: in ethanol, 313.15 K
Quantity measured: solubility (mole fraction)
Quick one: just the number, no unit, thanks!

query: Name the reported solubility (mole fraction) value associated with the molecule Cc1nnc(C(C)C)n1[C@@H]1C[C@H]2CC[C@@H](C1)N2CC[C@H](NC(=O)C1CCC(F)(F)CC1)c1ccccc1
result: 0.00273

---

Settings: in DMF, 323.15 K
Quantity measured: solubility (mole fraction)

query: # query: solubility (mole fraction) of entry Cc1nnc(C(C)C)n1[C@@H]1C[C@H]2CC[C@@H](C1)N2CC[C@H](NC(=O)C1CCC(F)(F)CC1)c1ccccc1
result: 0.00105

---

Details: in DMSO, 303.15 K
Quantity measured: solubility (mole fraction)
Simply state the number, no unit and no words.

query: Record request: solubility (mole fraction) value, item Cc1nnc(C(C)C)n1[C@@H]1C[C@H]2CC[C@@H](C1)N2CC[C@H](NC(=O)C1CCC(F)(F)CC1)c1ccccc1
result: 0.000133

---

Conditions: in DMF, 308.15 K
Quantity measured: solubility (mole fraction)

query: State the recorded solubility (mole fraction) for this entry: Cc1nnc(C(C)C)n1[C@@H]1C[C@H]2CC[C@@H](C1)N2CC[C@H](NC(=O)C1CCC(F)(F)CC1)c1ccccc1
result: 0.000364

---

Conditions: in n-propanol, 313.15 K
Quantity measured: solubility (mole fraction)
In your answer, state the number alone without any accompanying words.

query: GET /values?readout=solubility (mole fraction)&item= Cc1nnc(C(C)C)n1[C@@H]1C[C@H]2CC[C@@H](C1)N2CC[C@H](NC(=O)C1CCC(F)(F)CC1)c1ccccc1
result: 0.00222

---

Conditions: in water, 303.15 K
Quantity measured: solubility (mole fraction)

query: Any idea what its solubility (mole fraction) is? The compound is Cc1nnc(C(C)C)n1[C@@H]1C[C@H]2CC[C@@H](C1)N2CC[C@H](NC(=O)C1CCC(F)(F)CC1)c1ccccc1
result: 3.5e-05

---

Settings: in DMF, 303.15 K
Quantity measured: solubility (mole fraction)
API doc: respond with a numeric literal and nothing else, no unit.

query: Given Cc1nnc(C(C)C)n1[C@@H]1C[C@H]2CC[C@@H](C1)N2CC[C@H](NC(=O)C1CCC(F)(F)CC1)c1ccccc1 , state its recorded solubility (mole fraction).
result: 0.000256

---

Settings: in DMSO, 298.15 K
Quantity measured: solubility (mole fraction)
Quick one: just the number, no unit, thanks!

query: Quick one: solubility (mole fraction) for Cc1nnc(C(C)C)n1[C@@H]1C[C@H]2CC[C@@H](C1)N2CC[C@H](NC(=O)C1CCC(F)(F)CC1)c1ccccc1 ?
result: 8.77e-05

---

Conditions: in n-propanol, 288.15 K
Quantity measured: solubility (mole fraction)
# respond with the number and nothing more

query: What value of solubility (mole fraction) has been reported for the following compound? Cc1nnc(C(C)C)n1[C@@H]1C[C@H]2CC[C@@H](C1)N2CC[C@H](NC(=O)C1CCC(F)(F)CC1)c1ccccc1
result: 0.000454

---

Conditions: in ethanol, 323.15 K
Quantity measured: solubility (mole fraction)
Response field accepts a number only; no unit should be typed.

query: Any idea what its solubility (mole fraction) is? The compound is Cc1nnc(C(C)C)n1[C@@H]1C[C@H]2CC[C@@H](C1)N2CC[C@H](NC(=O)C1CCC(F)(F)CC1)c1ccccc1
result: 0.00458

---

Settings: in water, 323.15 K
Quantity measured: solubility (mole fraction)
API doc: respond with a numeric literal and nothing else, no unit.

query: I'd like to know its solubility (mole fraction). The molecule in question is Cc1nnc(C(C)C)n1[C@@H]1C[C@H]2CC[C@@H](C1)N2CC[C@H](NC(=O)C1CCC(F)(F)CC1)c1ccccc1
result: 0.000137

---

Settings: in DMSO, 323.15 K
Quantity measured: solubility (mole fraction)

query: Could you tell me which solubility (mole fraction) is on file for Cc1nnc(C(C)C)n1[C@@H]1C[C@H]2CC[C@@H](C1)N2CC[C@H](NC(=O)C1CCC(F)(F)CC1)c1ccccc1 ?
result: 0.000539

---

Settings: in water, 283.15 K
Quantity measured: solubility (mole fraction)
When you answer, write just the number.

query: Form field: reported solubility (mole fraction) of Cc1nnc(C(C)C)n1[C@@H]1C[C@H]2CC[C@@H](C1)N2CC[C@H](NC(=O)C1CCC(F)(F)CC1)c1ccccc1
result: 8.2e-06

---

Conditions: in n-propanol, 303.15 K
Quantity measured: solubility (mole fraction)

query: Query: solubility (mole fraction); subject: Cc1nnc(C(C)C)n1[C@@H]1C[C@H]2CC[C@@H](C1)N2CC[C@H](NC(=O)C1CCC(F)(F)CC1)c1ccccc1
result: 0.00126

---

Details: in water, 308.15 K
Quantity measured: solubility (mole fraction)
Answer using only a numeral; do not append any unit.

query: What solubility (mole fraction) value was documented for this molecule, Cc1nnc(C(C)C)n1[C@@H]1C[C@H]2CC[C@@H](C1)N2CC[C@H](NC(=O)C1CCC(F)(F)CC1)c1ccccc1 ?
result: 5e-05

---

Conditions: in n-propanol, 293.15 K
Quantity measured: solubility (mole fraction)
Respond using a number only.

query: // query solubility (mole fraction) value for entry Cc1nnc(C(C)C)n1[C@@H]1C[C@H]2CC[C@@H](C1)N2CC[C@H](NC(=O)C1CCC(F)(F)CC1)c1ccccc1
result: 0.000645

---

Conditions: in DMSO, 293.15 K
Quantity measured: solubility (mole fraction)
Quick one: just the number, no unit, thanks!

query: Reported solubility (mole fraction), compound Cc1nnc(C(C)C)n1[C@@H]1C[C@H]2CC[C@@H](C1)N2CC[C@H](NC(=O)C1CCC(F)(F)CC1)c1ccccc1 : ____
result: 5.92e-05

---

Details: in ethanol, 293.15 K
Quantity measured: solubility (mole fraction)
A bare number is all that is needed in reply.

query: Look up solubility (mole fraction) for this molecule: Cc1nnc(C(C)C)n1[C@@H]1C[C@H]2CC[C@@H](C1)N2CC[C@H](NC(=O)C1CCC(F)(F)CC1)c1ccccc1
result: 0.000715

Every entry's value here was drawn from BigSolDB 2.1.
